- Test system: K-562 leukemia
- experimentalProtocol: NCI tumour cell line growth inhibition, 48 h
# GI50 per record follows
metricName: GI50

                               linenotation     result
0  CS(=O)(=O)Nc1ccc(Nc2c3ccccc3nc3cc(Cl)ccc23)cc1    2.11 µM
1  O=C(Nc1cccc(C(F)(F)F)c1)Nc1ccc(OCc2nnc(-c3ccccc3)o2)c(F)c1    5.12 µM
2  O=C(Nc1cccc(C(F)(F)F)c1)Nc1cc(S(=O)(=O)NC2CC2)ccc1-c1ccsc1    3.42 µM
3  CCc1c[nH]c2ncnc(N3CC[C@](N)(CNC(=O)c4ccc(F)cc4F)C3)c12  > 54.1 µM
4  COc1ccc(-c2ccc(/C=N/n3c(COc4ccc(Cl)c(C)c4)nn(CN4CCOCC4)c3=S)o2)c([N+](=O)[O-])c1    20.4 µM
5  COc1ccc(S(=O)(=O)NCCCNc2nccc(-c3c(-c4ccc(F)cc4)nc4sccn34)n2)cc1    2.99 µM

====

- System: DU-145 prostate
- experimentalProtocol: NCI tumour cell line growth inhibition, 48 h
metricName: GI50

                                   compound  metricname    result
0  CC(=O)Nc1ccc(C(=O)COc2cccc(/C=C3\CCc4ccccc4C3=O)c2)cc1        GI50   19.2 µM
1  Nc1ccc(N)c2c1C(=O)c1cccc([N+](=O)[O-])c1C2=O        GI50  0.662 µM
2       ClCc1ccc(Cn2cnc3nc(Cl)nc(Cl)c32)cc1        GI50  0.444 µM
3  N#Cc1c(N)nc(N2CCOCC2)c(C#N)c1-c1ccc(Cl)cc1Cl        GI50   24.6 µM
4  Cn1c(=O)c(Oc2ccc(F)cc2F)cc2cnc(NC3CCC(O)CC3)nc21 (stereo not given)        GI50   > 25 µM
5  Cc1c(-c2ccc(N3CCc4cccc(C(=O)Nc5nc6ccccc6s5)c4C3)nc2C(=O)O)cnn1CC12CC3CC(CC(C3)C1)C2        GI50   15.2 µM
6  Clc1ccc(N=CNc2ccc(-c3nc4ccccc4[nH]3)cc2)cc1        GI50   59.2 µM
7  CCn1c(SC)nnc1-c1cc2c([nH]c3ccccc32)c(-c2cccc(O)c2)n1        GI50   4.46 µM
8      O=C(NCc1cccnc1)c1ccc([N+](=O)[O-])o1        GI50   1.11 µM
9  O=C1COc2c(CCNCCN(C(=O)CCNCCc3ccc(Cl)c(Cl)c3)C3CCCCC3)ccc(O)c2N1        GI50   17.7 µM

====

- Tested on: UO-31 renal
- experimentalProtocol: NCI tumour cell line growth inhibition, 48 h
# maps each entry to its TGI
metricName: TGI (µM)

                               linenotation   testtarget  metricname  unitssymbol  censorsymbol  numericreadout
0  CSC(=NCCCN=C(NS(=O)(=O)c1ccc(Cl)cc1)SC)NS(=O)(=O)c1ccc(Cl)cc1  UO-31 renal         TGI           µM             =            40.5
1  N#Cc1c2c(c(Nc3ccc(Cl)cc3)n3c1nc1ccccc13)CCCC2  UO-31 renal         TGI           µM             >             100
2  N#Cc1c(N)nc(N2CCOCC2)c(C#N)c1-c1ccc(Cl)cc1Cl  UO-31 renal         TGI           µM             =            15.8
3  COc1ccc(OC)c2c(Nc3ccc(S(=O)(=O)O)c4cc(S(=O)(=O)O)cc(S(=O)(=O)O)c34)cc(C)nc12  UO-31 renal         TGI           µM             >             100
4  O=C(/C=C/N1CCN(c2cccc(Cl)c2)CC1)c1ccc(Cl)cc1  UO-31 renal         TGI           µM             >             100
